- TARGET_OR_SYSTEM: human GPR119 (Homo sapiens, UniProt Q8TDV5)
- Sequence (Q8TDV5 1-335): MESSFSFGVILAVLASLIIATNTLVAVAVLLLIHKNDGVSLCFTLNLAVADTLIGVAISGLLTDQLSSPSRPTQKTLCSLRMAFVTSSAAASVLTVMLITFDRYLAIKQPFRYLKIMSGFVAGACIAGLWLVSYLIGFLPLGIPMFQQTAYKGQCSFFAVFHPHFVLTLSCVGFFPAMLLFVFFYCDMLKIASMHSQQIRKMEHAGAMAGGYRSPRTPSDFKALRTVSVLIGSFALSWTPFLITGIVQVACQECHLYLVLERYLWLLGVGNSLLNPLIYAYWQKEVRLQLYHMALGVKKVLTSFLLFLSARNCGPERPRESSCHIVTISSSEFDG
- ASSAY_TEXT: Functional cellular assay measuring GPR119-mediated cAMP release (HTRF), HEK-293 cells stably expressing recombinant GPR119
- DETAILS: cell line expressing human GPR119; cAMP response, 30 minutes at room temperature
MEASURED_PARAMETER: EC50 (nM)

Below are worked cases with known answers.
O=C1CCc2c(F)cc(N3CC[C@@H](Oc4ccc(OCCN5CCCC5)nc4)C3=O)cc21; 15000
O=C1CCc2c(F)cc(N3CC[C@@H](Oc4ccc(OCC5CCOC5)nc4)C3=O)cc21 (stereo partly shown); 95
O=C1CCc2c(F)cc(N3CC[C@@H](Oc4ccc(OCC5CCCOC5)nc4)C3=O)cc21 (stereo partly shown); 159
Cc1cc(COc2ccc(O[C@@H]3CCN(c4cc(F)c5c(c4)C(=O)CC5)C3=O)cn2)no1; 360
O=C1CCc2c(F)cc(N3CC[C@@H](Oc4ccnc(OCC(F)(F)F)c4)C3=O)cc21; 30

P: Cn1cc(COc2ccc(O[C@@H]3CCN(c4cc(F)c5c(c4)C(=O)CC5)C3=O)cn2)cn1
Q: O=C1CCc2c(F)cc(N3CC[C@@H](Oc4ccc(OCc5ccncc5)nc4)C3=O)cc21
R: CCCC[S+]([O-])c1ccc(O[C@@H]2CCN(c3cc(F)c4c(c3)C(=O)CC4)C2=O)cn1 (stereo partly shown)
S: O=C1CCc2c(F)cc(N3CC[C@@H](Oc4ccc(-c5ncc(CO)s5)nc4)C3=O)cc21
### Prompt Order by EC50, ascending. Lab note: record answer as labels in requested order.
### Response R, Q, P, S
(R: 558 nM, Q: 1410 nM, P: 2500 nM, S: 3810 nM)

###

- TARGET_OR_SYSTEM: human GPR119 (Homo sapiens, UniProt Q8TDV5)
- ASSAY_TEXT: Functional cellular assay measuring GPR119-mediated cAMP release (HTRF), HEK-293 cells stably expressing recombinant GPR119
- DETAILS: cell line expressing human GPR119; cAMP response, 30 minutes at room temperature
pEC50: −log10 of the molar value.
MEASURED_PARAMETER: pEC50

I: CC(C)N(CCOc1ccc(O[C@@H]2CCN(c3cc(F)c4c(c3)C(=O)CC4)C2=O)cn1)C(C)C [Example 2-58]
II: O=C1CCc2ccc(N3CC[C@@H](Oc4ccc(Oc5ccc(F)cc5)nc4)C3=O)cc21 [Example 1-06]
III: CCC(COC)Oc1ccc(O[C@@H]2CCN(c3cc(F)c4c(c3)C(=O)CC4)C2=O)cn1 (some centres unmarked) [Example 2-47]
IV: CCOCCCOc1ccc(O[C@@H]2CCN(c3cc(F)c4c(c3)C(=O)CC4)C2=O)cn1 [Example 2-53]
V: CC(C)CCOc1ccc(O[C@@H]2CCN(c3cc(F)c4c(c3)C(=O)CC4)C2=O)cn1 [Example 2-22]
### Prompt Order by pEC50, ascending. Lab note: record answer as labels in requested order.
### Response I, II, III, IV, V
(I: 5.12, II: 6.56, III: 6.86, IV: 7.68, V: 8.05)

I: CCC(C)CCOc1ccc(O[C@@H]2CCN(c3cc(F)c4c(c3)C(=O)CC4)C2=O)cn1 (some centres unmarked) [Example 2-34]
II: COC(C)CCOc1ccc(O[C@@H]2CCN(c3cc(F)c4c(c3)C(=O)CC4)C2=O)cn1 (some centres unmarked) [Example 2-33]
### Prompt Hi there, can you help? I need to know whether I or II has lower measured pEC50. Record your answer as the label of the chosen record.
### Response II

###

- TARGET_OR_SYSTEM: human GPR119 (Homo sapiens, UniProt Q8TDV5)
- ASSAY_TEXT: Functional cellular assay measuring GPR119-mediated cAMP release (HTRF), HEK-293 cells stably expressing recombinant GPR119
- DETAILS: cell line expressing human GPR119; cAMP response, 30 minutes at room temperature
pEC50: −log10 of the molar value.
MEASURED_PARAMETER: pEC50

P: CO[C@@H](C)COc1ccc(O[C@@H]2CCN(c3cc(F)c4c(c3)C(=O)CC4)C2=O)cn1 [Example 2-69]
Q: O=C1CCc2c(F)cc(N3CC[C@@H](Oc4ccc(OCC5CC5)[n+]([O-])c4)C3=O)cc21 [Example 7-01]
R: O=C1CCc2c(F)cc(N3CC[C@@H](Oc4ccc(OCCC5CC5)nc4)C3=O)cc21 [Example 1-08]
S: O=C1CCc2c(F)cc(N3CC[C@@H](Oc4ccc(Oc5ccc(F)cc5)nc4)C3=O)cc21 [Example 1-07]
### Prompt Please list the entries, largest pEC50 first. Lab note: record answer as labels in requested order.
### Response R, P, S, Q
(R: 8.10, P: 7.54, S: 7.06, Q: 5.25)

###

- TARGET_OR_SYSTEM: human GPR119 (Homo sapiens, UniProt Q8TDV5)
- Sequence (Q8TDV5 1-335): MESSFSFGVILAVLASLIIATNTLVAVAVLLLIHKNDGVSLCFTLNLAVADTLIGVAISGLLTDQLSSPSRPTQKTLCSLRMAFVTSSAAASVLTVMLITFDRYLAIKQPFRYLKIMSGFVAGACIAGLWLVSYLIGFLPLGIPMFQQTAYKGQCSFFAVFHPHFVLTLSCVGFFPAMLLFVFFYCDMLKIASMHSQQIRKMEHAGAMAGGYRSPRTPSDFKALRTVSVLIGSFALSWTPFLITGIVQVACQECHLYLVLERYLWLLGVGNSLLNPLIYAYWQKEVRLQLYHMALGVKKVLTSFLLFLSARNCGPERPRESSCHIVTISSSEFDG
- ASSAY_TEXT: Functional cellular assay measuring GPR119-mediated cAMP release (HTRF), HEK-293 cells stably expressing recombinant GPR119
- DETAILS: cell line expressing human GPR119; cAMP response, 30 minutes at room temperature
MEASURED_PARAMETER: EC50 (nM)

Below are worked cases with known answers.
O=C1CCc2ccc(N3CC[C@@H](Oc4ccc(OCCC5CC5)nc4)C3=O)cc21 [Example 1-09]; 64
O=C1CCc2c(F)cc(N3CC[C@@H](Oc4ccc(OCCC(F)(F)F)nc4)C3=O)cc21 [Example 2-39]; 18
O=C1CCc2c(F)cc(N3CC[C@@H](Oc4ccc(OC5CC5)nc4)C3=O)c(F)c21 [Example 9-02]; 69
O=C1CCc2c(F)cc(N3CC[C@@H](Oc4ccc(SCC5CC5)nc4)C3=O)cc21 [Example 3-17]; 11
O=C1CCc2c(F)cc(N3CC[C@@H](Oc4ccc(OC[C@H]5CCCO5)nc4)C3=O)cc21 [Example 2-74]; 84

a: CCCCCOc1ccc(O[C@@H]2CCN(c3cc(F)c4c(c3)C(=O)CC4)C2=O)cn1 [Example 2-17]
b: CC(C)=CCOc1ccc(O[C@@H]2CCN(c3cc(F)c4c(c3)C(=O)CC4)C2=O)cn1 [Example 2-20]
### Prompt Hi there, can you help? I need to know whether a or b has lower measured EC50. Record your answer as the label of the chosen record.
### Response a

###

- TARGET_OR_SYSTEM: human GPR119 (Homo sapiens, UniProt Q8TDV5)
- ASSAY_TEXT: Functional cellular assay measuring GPR119-mediated cAMP release (HTRF), HEK-293 cells stably expressing recombinant GPR119
- DETAILS: cell line expressing human GPR119; cAMP response, 30 minutes at room temperature
pEC50: −log10 of the molar value.
MEASURED_PARAMETER: pEC50

Cc1cc(N2CC[C@@H](Oc3ccc(OCC4CC4)nc3)C2=O)cc2c1CCC2=O; 6.55
O=C1CCc2c(F)cc(N3CC[C@@H](Oc4ccc(OCC(F)(F)F)nc4)C3=O)cc21; 7.36
CSCCCOc1ccc(O[C@@H]2CCN(c3cc(F)c4c(c3)C(=O)CC4)C2=O)cn1; 6.99
CC1CC1COc1ccc(O[C@@H]2CCN(c3cc(F)c4c(c3)C(=O)CC4)C2=O)cn1 (some centres unmarked); 7.96
CCOc1ccc(O[C@@H]2CCN(c3cc(F)c4c(c3)C(=O)CC4)C2=O)cn1; 7.77
O=C1CCc2c(F)cc(N3CC[C@H](Oc4ccc(OCCC5CC5)nc4)C3=O)cc21; 6.59
CCOc1ncc(O[C@@H]2CCN(c3cc(F)c4c(c3)C(=O)CC4)C2=O)cc1F; 7.35
CCC(C)Oc1ccc(O[C@@H]2CCN(c3cc(F)c4c(c3)C(=O)CC4)C2=O)cn1 (some centres unmarked); 7.92

P: O=C1CCc2c(F)cc(N3CC[C@@H](Oc4ccnc(OCCC5CC5)c4)C3=O)cc21
Q: O=C1CCc2c(Cl)cc(N3CC[C@@H](Oc4ccc(OCC5CC5)nc4)C3=O)cc21
### Prompt Hi there, can you help? I need to know whether P or Q has lower measured pEC50. Record your answer as the label of the chosen record.
### Response Q
(Q: 7.19, P: 7.66)

a: CCC(Oc1ccc(O[C@@H]2CCN(c3cc(F)c4c(c3)C(=O)CC4)C2=O)cn1)C(C)C (some centres unmarked)
b: CC(C)CC(C)Oc1ccc(O[C@@H]2CCN(c3cc(F)c4c(c3)C(=O)CC4)C2=O)cn1 (some centres unmarked)
### Prompt Between a and b , which one shows the larger pEC50 value? Record your answer as the label of the chosen record.
### Response b

a: CC(C)(CO)COc1ccc(O[C@@H]2CCN(c3cc(F)c4c(c3)C(=O)CC4)C2=O)cn1
b: O=C1CC[C@H](COc2ccc(O[C@@H]3CCN(c4cc(F)c5c(c4)C(=O)CC5)C3=O)cn2)N1
c: CCOc1ccc(O[C@H]2CCN(c3cc(F)c4c(c3)C(=O)CC4)C2=O)cn1
### Prompt Could you please sort these 3 entries by pEC50 from high to low? Lab note: record answer as labels in requested order.
### Response a, c, b

a: O=C1CCc2c(F)cc(N3CC[C@@H](Oc4ccc(OC5CC5)nc4)C3=O)cc21
b: CC(C)C(C)Oc1ccc(O[C@@H]2CCN(c3cc(F)c4c(c3)C(=O)CC4)C2=O)cn1 (some centres unmarked)
### Prompt Hi there, can you help? I need to know whether a or b has lower measured pEC50. Record your answer as the label of the chosen record.
### Response b
(b: 7.43, a: 7.72)

P: O=C1CCc2ccc(N3CCC(Oc4ccc(Oc5ccc(F)cc5)cc4)C3=O)cc21 (centres unmarked)
Q: CC1(COc2ccc(O[C@@H]3CCN(c4cc(F)c5c(c4)C(=O)CC5)C3=O)cn2)CC1
R: O=C(OCC1CC1)c1ccc(O[C@@H]2CCN(c3cc(F)c4c(c3)C(=O)CC4)C2=O)cn1
### Prompt Could you please sort these 3 entries by pEC50 from high to low? Lab note: record answer as labels in requested order.
### Response Q, R, P

1: O=C1CCc2c(F)cc(N3CC[C@@H](Oc4ccc(OCCCO)nc4)C3=O)cc21
2: CC(C)CCCc1ccc(O[C@@H]2CCN(c3cc(F)c4c(c3)C(=O)CC4)C2=O)cn1
### Prompt Between 1 and 2 , which one shows the larger pEC50 value? Record your answer as the label of the chosen record.
### Response 2

// data source = patent US8853412B2
